assayed.system: plasma fibronectin (FN)
measurement.description: fluorescence polarisation + SEC; KD limit calculated as koff/kon from the stopped-flow on-rate and the upper limit of koff by chromatography
attribute.measured: Kd

# substance, attribute.measured, result
records = [
    ("AFHADD (HADD labeled with Alexa 488 on the N-terminal cysteine) (domain or fragment)", "Kd", "< 2.3 nM"),
]

---

assayed.system: FN70K fragment (N-terminal 70-kDa region of fibronectin)
measurement.description: fluorescence polarisation + SEC; KD limit calculated as koff/kon from the stopped-flow on-rate and the upper limit of koff by chromatography

# substance, assayed.system, Kd
rows = [
    ("AFHADD (HADD labeled with Alexa 488 on the N-terminal cysteine) (domain or fragment)", "FN70K fragment (N-terminal 70-kDa region of fibronectin)", "< 0.1 nM"),
]

// provenance: paper PMC4412574
